Data origin, for the record: paper PMC7486940

- assay.remarks: in vivo
- test.parameters: female, C57BL/6J, mouse, ip, 50 mg/kg, CSF concentration, Mouse 2
endpoint.label: concentration at 1 h (nM)
Write the value in nM as a bare number.

Entry under review: CCO[C@@H]1OC(=O)C[C@@H]1NC(=O)[C@@H]1CCCN1C(=O)[C@@H](NC(=O)c1ccc(N)c(Cl)c1)C(C)(C)C . Reported concentration at 1 h?
100

###

- assay.remarks: in vivo
- test.parameters: female, C57BL/6J, mouse, ip, 50 mg/kg, plasma concentration, Mean
endpoint.label: concentration at 0.25 h (nM)
Answer with a number only, understood to be in nM.

Query (compound): CCO[C@@H]1OC(=O)C[C@@H]1NC(=O)[C@@H]1CCCN1C(=O)[C@@H](NC(=O)c1ccc(N)c(Cl)c1)C(C)(C)C [VX-765] ; field requested: concentration at 0.25 h
290
